Target entity: human interleukin 13 receptor alpha 1 (IL-13Rα1), biotinylated ectodomain (human) (UniProt P78552)
Protocol: SPR (Biacore T100), biotinylated receptor on SA chip, 1:1 kinetic fit
Reported koff values follow for various binders

B2 (ligand, also called IL-13 variant B2 (V18I, R86T, D87G, T88S, L101Y, K104R, K105A)) cytokine: PGPVPPSTALRELIEELINITQNQKAPLCNGSMVWSINLTAGMYCAALESLINVSGCSAIEKTQRMLSGFCPHKVSAGQFSSLHVTGSKIEVAQFVKDLLYHLRALFREGQFN
0.0017 s⁻¹

Kindly consider the entry below.
INPUT: For A5 (ligand, also called IL-13 variant A5 (R11I, V18I, R86K, D87G, T88S, L101H, K104R, K105A, F107M)) cytokine: PGPVPPSTALIELIEELINITQNQKAPLCNGSMVWSINLTAGMYCAALESLINVSGCSAIEKTQRMLSGFCPHKVSAGQFSSLHVKGSKIEVAQFVKDLLHHLRALMREGQFN , what is its reported koff?
OUTPUT: 0.0082 s⁻¹

Just for reference, patent US20210214410A1 is where these values come from.
